# Assay text: Metabolic stability in human liver microsomes
# Type: in vitro ADME
# Condition description: both sexes, human, pH 7.4
k el at 2 µM values for the compounds below.
// note: answer is a bare numeric in s⁻¹

1. Cn1cc(C(=O)Nc2ccccc2-c2cc(F)c(F)c(F)c2)c(C(F)F)n1 [Fluxapyroxad, reference compound] | 0.0002

Here is another compound to look at.
Entry under test: O=C(Nc1ccccc1-c1ccc(Cl)cc1)c1cccnc1Cl [Boscalid, reference compound] . Its k el at 2 µM was 0.000183

----------
# Assay text: Metabolic stability in human liver microsomes
# Assay type: in vitro ADME
# Condition description: both sexes, human, microsomes, pH 7.4, t1/2
Value kind: half-life at 2 µM (h)
Write the answer as a number in h, unit excluded.

1) O=C(Nc1ccccc1-c1ccc(Cl)cc1)c1cccnc1Cl [Boscalid, reference compound] | 1.06

Next item in the queue.
Value of half-life at 2 µM reported for the compound Cn1cc(C(=O)Nc2ccccc2-c2cc(F)c(F)c(F)c2)c(C(F)F)n1 [Fluxapyroxad, reference compound] is 0.983
